Measured Population Mitotic Cells (%) of individual entries
- System: Fibroblast
- Measurement description: Multiplex assay against human fibroblast
- Assay type: toxicity, cell-based
- Measurement conditions: 48 h, 1 µM, compound concentration 1 uM, replicate 1
Answer with a number only, understood to be in %.

1. CCCS(=O)(=O)c1nc(NC2CC2)cc(-c2ccc3c(ccn3C3CC(C)(C)NC(C)(C)C3)c2)n1 ... 41
2. O=C(Nc1ccc(Cl)cc1)Nc1cccc(-c2cccc(N3CCCC3)n2)c1 ... 44
3. CN(C)C(=O)C(CCN1CCC(O)(c2ccc(Cl)cc2)CC1)(c1ccccc1)c1ccccc1.Cl [LOPERAMIDE HYDROCHLORIDE] ... 32

Please look at the following compound next.
Exercise: Fill in Population Mitotic Cells (%) for `CCN1CCN(Cc2ccc(Nc3ncc(F)c(-c4cc(F)c5nc(C)n(C(C)C)c5c4)n3)nc2)CC1.CS(=O)(=O)O` tested with Fibroblast.
Solution: 43

---

Population Membrane Permeable-Phenotype (%) overview
- Test system: Fibroblast
- Measurement description: Multiplex assay against human fibroblast
- Format: toxicity, cell-based
- Measurement conditions: 12 h, 10 µM, compound concentration 10 uM, replicate 2

1) CCc1cccc(CC)c1NC(=O)c1nn(C)c2c1CCc1cnc(Nc3ccc(C(=O)NC4CCN(C)CC4)cc3OC(F)(F)F)nc1-2 ... 15%

Exercise: Give the measured Population Membrane Permeable-Phenotype (%) for CN1C2CCC1CC(OC(c1ccc(F)cc1)c1ccc(F)cc1)C2.Cl (stereo unspecified)
Solution: 10%

Exercise: Please list Population Membrane Permeable-Phenotype (%) recorded for the compound `Cl.O=c1c2cccn2c2ccccc2n1CCCN1CCC(c2ccc(Cl)cc2)CC1`
Solution: 74%

Exercise: Write down Population Membrane Permeable-Phenotype (%) measured for item `S=C(NCCCc1c[nH]cn1)NCCCN(Cc1ccc(Cl)c(Cl)c1)c1ccc(Br)cn1`
Solution: 100%

Exercise: State its Population Membrane Permeable-Phenotype (%) for this compound: `COc1ccc(S(=O)(=O)N(CCO)c2ccccc2CN(C)C/C=C/c2ccc(Cl)cc2)cc1.O=P(O)(O)O`
Solution: 22%

Exercise: Provide Population Membrane Permeable-Phenotype (%) value for the following compound: `CCn1c(=O)c(-c2ccc(-c3cncs3)cc2Cl)cc2cnc(Nc3ccc(N4CCN(C)CC4)cc3)nc21`
Solution: 5%

Exercise: Tell me measured Population Membrane Permeable-Phenotype (%) for `Cc1ccc2nc(NCCN)c3ncc(C)n3c2c1.O=C(O)C(F)(F)F.O=C(O)C(F)(F)F` please.
Solution: 6%

Exercise: Given the compound O=C(Nc1ccc(-n2nc(-c3cccnc3)cc2C(F)(F)F)cn1)c1ccc(-c2ccccc2)c(F)c1 [BI 2049] , write its reported Population Membrane Permeable-Phenotype (%).
Solution: 4%

---

List of Population Pyknosed Nuclei (%) values.
- Tested on: Fibroblast
- Measurement description: Multiplex assay against human fibroblast
- Format: toxicity, cell-based
- Measurement conditions: 24 h, 10 µM, compound concentration 10 uM, replicate 2
Just the number in %, nothing appended.

Worked cases, Population Pyknosed Nuclei (%) given:
1. CCCn1c(=O)c2[nH]c(-c3cnn(Cc4cccc(C(F)(F)F)c4)c3)nc2n(CC)c1=O [GS 6201] ... 10
2. C=CCn1c(=O)c2cnc(Nc3ccc(N4CCN(C)CC4)cc3)nc2n1-c1cccc(C(C)(C)O)n1 [ADAVOSERTIB] ... 3
3. COc1cccc2cc(-c3nc([C@H]4CC[C@H](C(=O)O)CC4)n4ncnc(N)c34)[nH]c12 [OSI-027] ... 6
4. Cc1ccc(C(=O)Nc2cccc(C(F)(F)F)c2)cc1Nc1nc(-c2cccnc2)nc2c1cnn2C ... 61
5. Cc1cn(-c2cc(NC(=O)c3ccc(C)c(Nc4nccc(-c5cccnc5)n4)c3)cc(C(F)(F)F)c2)cn1 [NILOTINIB] ... 4
6. Cl.O=c1c2cccn2c2ccccc2n1CCCN1CCC(c2ccc(Cl)cc2)CC1 ... 20

Exercise: Please supply the value of reported Population Pyknosed Nuclei (%) for the item `Cc1cc(C)c(S(=O)(=O)N(Cc2ccc(-c3cccc(S(C)(=O)=O)c3)cc2)Cc2ccc(C(F)(F)F)o2)c(C)c1`
Solution: 13

Exercise: Tell us which Population Pyknosed Nuclei (%) value is on record for `O=C(Nc1ccc(Cl)cc1)Nc1cccc(-c2cccc(N3CCCC3)n2)c1`
Solution: 31

Exercise: Fill in reported Population Pyknosed Nuclei (%) for this entry: COCC(=O)NC/C=C/c1ccc2ncnc(Nc3ccc(Oc4ccc(C)nc4)c(C)c3)c2c1 [CP-724714]
Solution: 28

Exercise: Write down Population Pyknosed Nuclei (%) measured for item O=C(Cc1ccc(-c2ccc(OCCN3CCOCC3)cc2)cn1)NCc1ccccc1 [TIRBANIBULIN]
Solution: 23

Exercise: # return recorded Population Pyknosed Nuclei (%) for entry `COC(=N)c1nc2ccc3ncnc(Nc4ccc(OC)cc4F)c3c2s1`
Solution: 7
